All values here come from ChEMBL document CHEMBL4622842.

- ASSAY_NAME: Intrinsic clearance in mouse liver microsomes at 0.2 uM incubated upto 45 mins by LC/MS-MS analysis
- Format: ADME, Microsome
- MEASUREMENT_CONDITIONS: read-out: CLH
OBSERVATION_TYPE: CLint scaled at 0.2 µM (mL/min/kg)
API: value field is a number in mL/min/kg; no unit string.

For the compound CCNC(=O)c1ccc(-c2c(C)nc3c(OCc4ccc(-c5ccccc5)cc4)cccn23)cn1.Cl , what CLint scaled at 0.2 µM is on record?
227

====

- TARGET: UniProtKB P08684
- Sequence (P08684 whole entry): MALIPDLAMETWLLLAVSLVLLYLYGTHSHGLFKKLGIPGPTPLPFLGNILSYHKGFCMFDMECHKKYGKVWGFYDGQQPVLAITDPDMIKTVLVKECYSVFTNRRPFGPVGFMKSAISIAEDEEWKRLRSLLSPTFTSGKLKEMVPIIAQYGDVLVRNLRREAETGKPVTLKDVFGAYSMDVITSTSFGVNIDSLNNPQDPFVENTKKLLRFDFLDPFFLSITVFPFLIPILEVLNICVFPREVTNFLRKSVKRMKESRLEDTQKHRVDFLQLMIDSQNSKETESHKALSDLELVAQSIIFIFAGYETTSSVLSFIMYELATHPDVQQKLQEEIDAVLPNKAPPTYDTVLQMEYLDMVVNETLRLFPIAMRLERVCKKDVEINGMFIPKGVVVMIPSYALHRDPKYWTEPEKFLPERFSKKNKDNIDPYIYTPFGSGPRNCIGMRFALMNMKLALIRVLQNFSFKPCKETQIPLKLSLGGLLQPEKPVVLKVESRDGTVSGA
- ASSAY_NAME: Inhibition of CYP3A4 in human liver microsome assessed as enzyme residual activity pre-incubated for 0 min followed by midazolam addition incubated for 20 mins by LC-MS/MS analysis relative to control
- Format: ADME
- MEASUREMENT_CONDITIONS: liver microsomes, probe midazolam, read-out: INH
OBSERVATION_TYPE: activity at 20 min (%)
API: value field is a number in %; no unit string.

Recall the recorded activity at 20 min for CNC(=O)c1ccc(-c2c(C)nc3c(OCc4ccc(-c5ccc(F)cc5)cc4F)cccn23)cn1.Cl with UniProtKB P08684 and state it.
109
